- protocol-summary: gradient 5% acetonitrile 3 min, to 50% in 2 min, to 85% in 15 min, held 3 min, 100 µL/min
- applied-conditions: column: Zorbax Extend-C18 2.1 x 50 mm; eluents: water / acetonitrile, 0.1% formic acid
# key: entry, value: RP-LC retention time
Supply the numeric figure in s, leaving out any unit text.

Cc1c(C(=O)N2CCN=C2SCc2cccnc2)cccc1[N+](=O)[O-] :: 577
COCCn1nc2n(c1=O)CCC1(CC2)CCN(C(=O)C2CCCO2)CC1 (stereo not drawn) :: 600
COc1ccccc1NC(=O)Nc1c(-c2ccc(F)cc2)nc2ccccn12 :: 692
O=C(c1ccc(F)c(Cl)c1)N1CCN(c2cc(-c3cccs3)[nH]n2)CC1 :: 800
CCCc1noc(-c2cccnc2N2CCCN(Cc3cc(F)cc(F)c3)CC2)n1 :: 733

Query: RP-LC retention time lookup needed for CC1=C(c2ccc(F)cc2)S(=O)(=O)N=C1N1CCC(NC(=O)NC(C)C)CC1 , thanks.
Reply: 861

Query: RP-LC retention time lookup needed for O=C(Cn1c(=O)c2cccn2c2ccccc21)NCCCN1CCCC1 , thanks.
Reply: 593

Query: RP-LC retention time lookup needed for COCc1nncn1C1CCN(S(=O)(=O)c2ccccc2C(F)(F)F)CC1 , thanks.
Reply: 725

----------
- protocol-summary: gradient 5% acetonitrile 3 min, to 50% in 2 min, to 85% in 15 min, held 3 min, 100 µL/min
- applied-conditions: column: Zorbax Extend-C18 2.1 x 50 mm; eluents: water / acetonitrile, 0.1% formic acid
RP-LC retention time vs 700 s: at or above is Satisfied, below is Not satisfied.

Query: API: above_or_equal(metric=RP-LC retention time, cutoff=700 s) for item O=C(NC1CCCC1)c1c[nH]c2ncccc12
Reply: Not satisfied

Query: API: above_or_equal(metric=RP-LC retention time, cutoff=700 s) for item COc1ccc(CN2C[C@@H]3C(=O)N(CCCN4CCCC4=O)C(=O)[C@@H]3C2)cc1
Reply: Not satisfied

Query: API: above_or_equal(metric=RP-LC retention time, cutoff=700 s) for item Cc1cc2[nH]c(C(=O)Nc3cc(F)ccc3F)c(CN3CCOCC3)c2s1
Reply: Satisfied

Query: API: above_or_equal(metric=RP-LC retention time, cutoff=700 s) for item CN(C)c1ccc(CNC(=O)C2CCN(S(=O)(=O)c3ccc4c(c3)CCCC(=O)N4)CC2)cc1
Reply: Not satisfied

Query: API: above_or_equal(metric=RP-LC retention time, cutoff=700 s) for item COCCCNC(=O)CCc1cn(Cc2ccccc2F)c2ccccc12
Reply: Satisfied

----------
- protocol-summary: gradient 5% acetonitrile 3 min, to 50% in 2 min, to 85% in 15 min, held 3 min, 100 µL/min
- applied-conditions: column: Zorbax Extend-C18 2.1 x 50 mm; eluents: water / acetonitrile, 0.1% formic acid
value-type: RP-LC retention time (s)
Supply the numeric figure in s, leaving out any unit text.

CCOC(=O)c1nc(Nc2ccc(Cl)cc2)c2ccccc2n1 :: 957
CSc1cccc(-n2ccc(=O)c(-c3nc(-c4ccccc4)no3)n2)c1 :: 971
Cc1ccc2c(c1)NN=C(C(=O)N1CCC(C)CC1)S2(=O)=O :: 809
CN1c2ccc(Cl)cc2C(=O)NC12CCN(C(=O)Nc1ccc(F)cc1)CC2 :: 788
O=c1c2cc(-c3ccc(F)cc3)nn2ccn1Cc1nc(-c2cccc(F)c2)no1 :: 1060
COC(=O)CNC(=O)N(C)Cc1nc2cc(C(=O)N3CCCC3)ccc2n1C :: 566

Query: RP-LC retention time lookup needed for CC1=C(C(=O)N2CCOCC2)C(c2ccc(Br)cc2)C2=C(CC(C)(C)CC2=O)N1 (stereo not drawn) , thanks.
Reply: 723

Query: RP-LC retention time lookup needed for CCn1cc(-c2nc(C)c(C(=O)Nc3ccc(C(=O)OC)cc3)s2)c2cccnc21 , thanks.
Reply: 1020

Query: RP-LC retention time lookup needed for Cc1cc(C)c2c(N3CCOCC3)nc(C(=O)NCCN3CCCCCC3)nc2n1 , thanks.
Reply: 555

Query: RP-LC retention time lookup needed for COc1cc(-c2nc3nc4ccccc4nc3n2CC2CCCO2)cc(OC)c1OC (stereo not drawn) , thanks.
Reply: 795

Query: RP-LC retention time lookup needed for Cc1cc(C(=O)Nc2ccc(S(C)(=O)=O)cc2)no1 , thanks.
Reply: 632
